biological target: horseradish peroxidase (HRP) tagged delF508-CFTR (Homo sapiens, UniProt P13569, DEL508-508); construct: expressed in transfected cells; assay: Measurement of delF508-CFTR-HRP surface expression in CFBE41o- cells; type: cell-based; details: delF508-CFTR-HRP surface expression, CFBE41o- cells; read-out: DelF508-CFTR-HRP EC50
Sequence (P13569 with tags, fused parts or gaps DEL508-508): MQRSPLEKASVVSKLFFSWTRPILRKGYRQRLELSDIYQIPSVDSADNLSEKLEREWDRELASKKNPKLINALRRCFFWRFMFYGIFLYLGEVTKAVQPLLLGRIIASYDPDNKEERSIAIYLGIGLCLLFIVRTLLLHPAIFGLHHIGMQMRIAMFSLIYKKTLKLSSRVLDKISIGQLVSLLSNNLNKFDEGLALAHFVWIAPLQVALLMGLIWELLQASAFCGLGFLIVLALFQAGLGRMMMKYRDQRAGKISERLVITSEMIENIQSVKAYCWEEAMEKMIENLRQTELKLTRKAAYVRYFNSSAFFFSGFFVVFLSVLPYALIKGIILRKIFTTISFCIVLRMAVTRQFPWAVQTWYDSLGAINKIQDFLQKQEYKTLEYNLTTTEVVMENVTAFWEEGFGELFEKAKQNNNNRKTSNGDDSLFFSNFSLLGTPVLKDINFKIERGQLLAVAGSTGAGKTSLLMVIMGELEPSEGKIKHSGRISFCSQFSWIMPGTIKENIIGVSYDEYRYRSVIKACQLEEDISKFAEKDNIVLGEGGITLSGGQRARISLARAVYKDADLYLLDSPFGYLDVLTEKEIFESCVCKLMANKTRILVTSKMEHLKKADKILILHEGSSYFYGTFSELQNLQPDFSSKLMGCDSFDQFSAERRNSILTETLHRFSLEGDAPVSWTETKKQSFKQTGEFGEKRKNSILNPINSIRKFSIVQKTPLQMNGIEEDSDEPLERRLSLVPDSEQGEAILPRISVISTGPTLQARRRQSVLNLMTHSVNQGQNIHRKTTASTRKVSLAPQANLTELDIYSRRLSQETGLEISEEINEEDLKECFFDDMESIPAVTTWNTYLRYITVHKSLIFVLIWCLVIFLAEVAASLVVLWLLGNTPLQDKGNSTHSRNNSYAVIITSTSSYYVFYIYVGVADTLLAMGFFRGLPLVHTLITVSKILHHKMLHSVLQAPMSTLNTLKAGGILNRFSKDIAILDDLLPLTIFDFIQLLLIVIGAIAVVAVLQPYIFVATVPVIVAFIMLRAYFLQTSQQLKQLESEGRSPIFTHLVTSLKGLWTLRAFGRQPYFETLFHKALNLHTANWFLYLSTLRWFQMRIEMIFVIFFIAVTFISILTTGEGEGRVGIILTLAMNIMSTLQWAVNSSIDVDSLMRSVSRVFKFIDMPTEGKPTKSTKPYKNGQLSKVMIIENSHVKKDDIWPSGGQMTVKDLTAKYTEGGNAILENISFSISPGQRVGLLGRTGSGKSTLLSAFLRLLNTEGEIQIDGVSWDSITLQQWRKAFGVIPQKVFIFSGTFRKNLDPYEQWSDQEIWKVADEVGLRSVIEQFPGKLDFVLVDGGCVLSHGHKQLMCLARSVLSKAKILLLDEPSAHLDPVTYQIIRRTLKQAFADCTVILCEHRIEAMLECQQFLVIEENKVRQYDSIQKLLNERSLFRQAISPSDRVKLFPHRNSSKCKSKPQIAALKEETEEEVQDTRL
Counter-ions that a name gives are not always drawn.
metric-name: EC50 (nM)

Solved cases below.
compound="CO[C@H]1CCNC[C@H]1Nc1cccc(S(=O)(=O)Nc2ccc(C(F)(F)F)c(-c3ccccc3C)n2)n1 [Example 106, Hydrochloride]" metric_name=EC50 observed=2580
compound="CCOC(=O)C1(C)CCN(c2cccc(S(=O)(=O)Nc3ccc(C(F)(F)F)c(-c4c(C)cccc4C)n3)n2)CC1 [Example 266]" metric_name=EC50 observed=1280
compound="Cc1ccccc1-c1nc(NS(=O)(=O)c2cccc(O[C@@H]3COC[C@]3(C)O)n2)ccc1C(F)(F)F (single isomer, unassigned) [Example 294]" metric_name=EC50 observed=2360

[I] Cc1cccc(C)c1-c1nc(NS(=O)(=O)c2cccc(NC3CCOCC3)n2)ccc1Cl [Example 271]
[II] Cc1c(F)cccc1-c1nc(NS(=O)(=O)c2cccc(N3CCC[C@H](C(=O)O)C3)n2)ccc1C(F)(F)F [Example 360]
[III] Cc1cccc(C)c1-c1nc(NS(=O)(=O)c2cccc(N3CC(C)(O)C3)n2)ccc1Cl [Example 210]
[IV] CC(C)(C)OC(=O)N1CCN(c2cccc(S(=O)(=O)Nc3ccc(C(F)(F)F)c(-c4ccccc4C4CC4)n3)n2)CC1 [Example 147]
Q. Thanks in advance: please rank these 4 entries by EC50, highest to lowest. Note for the reader: the ranking is given by listing the labels in the order requested.
A. II, I, III, IV
(II: 2110 nM, I: 1080 nM, III: 716 nM, IV: 375 nM)

====

biological target: horseradish peroxidase (HRP) tagged delF508-CFTR (Homo sapiens, UniProt P13569, DEL508-508); construct: expressed in transfected cells; test: Measurement of delF508-CFTR-HRP surface expression in CFBE41o- cells; type: cell-based; settings: delF508-CFTR-HRP surface expression, CFBE41o- cells; read-out: DelF508-CFTR-HRP EC50
metric-name: EC50 (nM)

Solved cases below.
entry_smiles=Cc1cccc(C)c1-c1nc(NS(=O)(=O)c2cccc(N3CCC(C)(C(=O)O)CC3)n2)ccc1C(F)(F)F uom=nM observed=1830
entry_smiles=Cc1cccc(C)c1-c1cc(C(F)(F)F)cc(NS(=O)(=O)c2cccc(N3CCN(C(=O)OC(C)(C)C)CC3)n2)n1 uom=nM observed=803

[I] Cc1ccccc1-c1nc(NS(=O)(=O)c2cccc(N3CCN(CC(N)=O)CC3)n2)ccc1C(F)(F)F
[II] Cc1c(F)cccc1-c1nc(NS(=O)(=O)c2cccc(N3CCC[C@@H](C(=O)O)C3)n2)ccc1C(F)(F)F
Q. Select the item with the higher value of EC50 from the options I and II listed. Give the chosen item's label as your response.
A. II
(II: 2320 nM, I: 896 nM)

====

molecular target: horseradish peroxidase (HRP) tagged delF508-CFTR (Homo sapiens, UniProt P13569, DEL508-508); construct: expressed in transfected cells; assay: Measurement of delF508-CFTR-HRP surface expression in CFBE41o- cells; assay type: cell-based; settings: delF508-CFTR-HRP surface expression, CFBE41o- cells; read-out: DelF508-CFTR-HRP EC50
pEC50: −log10 of the molar value.
metric-name: pEC50

entry_smiles=Cc1ccccc1-c1nc(NS(=O)(=O)c2cccc(N)n2)cc(C(F)(F)F)c1Cl observed=5.79
entry_smiles=Cc1ccc(F)cc1-c1nc(NS(=O)(=O)c2cccc(N3CCC[C@H](C(=O)O)C3)n2)ccc1C(F)(F)F observed=5.71
entry_smiles=Cc1ccc(Cl)c(-c2nc(NS(=O)(=O)c3cccc(N)n3)ccc2Cl)c1F observed=5.70
entry_smiles=Cc1ccccc1-c1nc(NS(=O)(=O)c2cccc(N3CCC34CNC4)n2)ccc1C(F)(F)F observed=5.34
entry_smiles=Cc1ccc(F)c(-c2nc(NS(=O)(=O)c3cccc(N)n3)ccc2Cl)c1Cl observed=5.75
entry_smiles=COc1cc(NS(=O)(=O)c2cccc(N3CC(C)(O)C3)n2)nc(-c2c(C)cccc2C)c1 observed=5.43
entry_smiles=O=S(=O)(Nc1ccc(C(F)(F)F)c(-c2ccccc2Cl)n1)c1cccc(N2CC(O)C2)n1 observed=5.77
entry_smiles=Cc1ccc(F)cc1-c1nc(NS(=O)(=O)c2cccc(N3CCN(C)CC3)n2)ccc1C(F)(F)F observed=5.68
entry_smiles=Cc1c(F)cccc1-c1nc(NS(=O)(=O)c2cccc(N3CCN(C(C)(C)C)CC3)n2)ccc1Cl observed=5.46
entry_smiles=O=S(=O)(Nc1ccc(Cl)c(-c2ccccc2C(F)(F)F)n1)c1cccc(N[C@H]2COC[C@@H]2O)n1 observed=5.71

[1] Cc1c(C#N)cccc1-c1nc(NS(=O)(=O)c2cccc(N3CC(C)(O)C3)n2)ccc1Cl
[2] Cc1c(F)cccc1-c1nc(NS(=O)(=O)c2cccc(N3CCC(C)(C(=O)O)CC3)n2)ccc1Cl
[3] CC(C)c1ccccc1-c1nc(NS(=O)(=O)c2cccc(N3CCC[C@H](C(=O)O)C3)n2)ccc1C(F)(F)F
[4] CCOC(=O)C1(C)CCN(c2cccc(S(=O)(=O)Nc3ccc(C(F)(F)F)c(-c4cc(F)ccc4C)n3)n2)CC1
Q. Arrange the 4 compounds by rising pEC50, starting with the smallest. Note for the reader: the ranking is given by listing the labels in the order requested.
A. 1, 2, 4, 3

Origin of measurements: patent US11066369B2
